As shown below, each of these binders has a reported SPOT peptide array binding signal intensity value.
Target: CaRvs167
Assay: SPOT peptide array binding signal intensity (averaged, normalized) (arbitrary units (background-subtracted, floor 0; scale differs between SH3 domains)); higher = stronger binding of the SH3 domain to the peptide
API note: the answer field is a bare number with no unit suffix.

Example results:
            binder  observed_measurement
0  KTRLRPAFIQQLWSS                  17.3
1  TIRRRAPLSLLESHT                  19.3
2  NLKKRPPTAPQRKIS                    32
3  ISRRRLPVIMHRLKM                  42.3
4  NILKRRPLKLEAPSK                  31.7
5  DKKTKPTPPPKPSHL                 0.333
6  TKFRISLGLPVGAIM                   245
7  NLDRSKISLPDFDDE                  1.33
8  FFRRSELYLPNSSKA                   4.5
9  HVRRSILALPLGVLL                  16.8

Lookup: Identify SPOT peptide array binding signal intensity associated with the binder RPPRPPPKPLHLRTE
Found: 67

Lookup: Please report SPOT peptide array binding signal intensity for the following binder: DRIRMFIRFPKFLLE
Found: 238
